Assay: in vitro
Conditions: human, uninfected MT-4 cells, CC50 (nM), same protocol as Test A, CellTiter-Glo
Protocol: For the antiviral assay, 40 μL of 1× test concentration of 3-fold serially diluted compound in culture medium with 10% FBS was added to each well of a 384-well plate (10 concentrations) in quadruplicate. […] Cell lysis was carried out by incubating at room temperature for 10 min and then chemiluminescence was read. […] Compound cytotoxicity and the corresponding CC50 values was determined using the same protocol as described in the antiviral assay (Test A) except that uninfected cells were used.
This section presents compounds with their documented CC50 at 5 days values.
Value expressed in nM; do not type the unit.

In the examples that follow, each entry is paired with its recorded CC50 at 5 days.
| compound | recorded_result |
| --- | --- |
| O=C(Cn1nc(C(F)F)c2c1C(F)(F)C1CC21)N[C@@H](Cc1cc(F)cc(F)c1)c1ncncc1-c1ccc2cnccc2c1 (stereo partly drawn) [Example 131C] | 10400 |
| O=C(Cn1nc(C(F)(F)F)c2c1COCC2)N[C@@H](Cc1cc(F)cc(F)c1)c1ncccc1-c1ccc(Cl)cc1 | 9100 |
| NC(=O)c1cc(-c2cccnc2[C@H](Cc2cc(F)cc(F)c2)NC(=O)Cn2nc(C(F)(F)F)c3c2C2CC2CC3)ccc1F (stereo partly drawn) [Example 342C] | 13700 |
| Cc1ccccc1-c1ccnc(C(Cc2cc(F)cc(F)c2)NC(=O)Cc2c[nH]c3ccc(O)cc23)n1 (stereo not drawn) | 35700 |

Pending compound:
Incoming: # get_value(readout='CC50 at 5 days', item= O=C(Cn1nc(C(F)F)c2c1C(F)(F)C1CC21)N[C@@H](Cc1cc(F)cc(F)c1)c1ncncc1-c1cnc2[nH]ccc2c1 (stereo partly drawn) [Example 172D] )
Outgoing: 22100

====

Test: in vitro
Conditions: human, uninfected MT-4 cells, CC50 (nM), same protocol as Test A, CellTiter-Glo
This section presents molecules with their documented CC50 at 5 days values.
Value expressed in nM; do not type the unit.

In the examples that follow, each entry is paired with its recorded CC50 at 5 days.
| molecule | CC50 at 5 days / nM |
| --- | --- |
| COc1ccc(-c2cccnc2[C@H](Cc2cc(F)cc(F)c2)NC(=O)Cc2c[nH]c3ccc(F)cc23)cn1 [Example 64] | 21100 |
| Cc1cccc(-c2cccnc2[C@H](Cc2cc(F)cc(F)c2)NC(=O)Cn2nc(C(F)(F)F)c3c2CCCC3)c1 [Example 76] | 11500 |
| O=C(Cc1c[nH]c2ccc(F)cc12)N[C@@H](Cc1cc(F)cc(F)c1)c1ncccc1-c1cc(Cl)cc(Cl)c1 [Example 422] | 6760 |
| O=C(Cc1c[nH]c2ccc(=O)[nH]c12)N[C@@H](Cc1cc(F)cc(F)c1)c1ncncc1-c1ccc(Cl)cc1 [Example 331B] | 43100 |
| CC1(O)CCCc2c(C(F)(F)F)nn(CC(=O)N[C@@H](Cc3cc(F)cc(F)c3)c3ncccc3-c3ccc(F)c(C(N)=O)c3)c21 (stereo partly drawn) [Example 356] | 20600 |

Incoming: # get_value(readout='CC50 at 5 days', item= NS(=O)(=O)c1cccc(-c2cccnc2[C@H](Cc2cc(F)cc(F)c2)NC(=O)Cc2c[nH]c3ccc(F)cc23)c1 [Example 428] )
Outgoing: 23000

Incoming: # get_value(readout='CC50 at 5 days', item= COc1ccc(-c2cccnc2[C@H](Cc2cc(F)cc(F)c2)NC(=O)Cc2c[nH]c3cc(OC)c(OCc4ccccc4)cc23)cc1 [Example 34E] )
Outgoing: 27800

Incoming: # get_value(readout='CC50 at 5 days', item= O=C(Cc1c[nH]c2ccc(F)cc12)N[C@@H](Cc1cc(F)cc(F)c1)c1ncccc1-c1ccccc1Cl [Example 395] )
Outgoing: 11600

====

Experiment: in vitro
Details: human, uninfected MT-4 cells, CC50 (nM), same protocol as Test A, CellTiter-Glo
assay_readout: CC50 at 5 days (nM)
Value expressed in nM; do not type the unit.

In the examples that follow, each entry is paired with its recorded CC50 at 5 days.
| compound | recorded_result |
| --- | --- |
| COc1ccc(-c2cccnc2[C@H](Cc2cc(F)cc(F)c2)NC(=O)Cn2nc(C(F)(F)F)c3c2CCCC3)cc1 | 11900 |
| O=C(Cn1nc(C(F)(F)F)c2c1CCCC2)N[C@@H](Cc1cc(F)cc(F)c1)c1ncccc1-c1ccc(N2CCCC2)nc1 | 7990 |
| NC(=O)c1cc(-c2cccnc2[C@H](Cc2cc(F)cc(F)c2)NC(=O)Cn2nc(C(F)(F)F)c3c2C2CC2CC3(F)F)ccc1F (stereo partly shown) | 3760 |

Incoming: # get_value(readout='CC50 at 5 days', item= Cc1ccc(C)c2c1NC(=O)C2CC(=O)N[C@@H](Cc1cc(F)cc(F)c1)c1ncccc1-c1ccc(F)c(C(N)=O)c1 (stereo partly shown) )
Outgoing: 47600

Incoming: # get_value(readout='CC50 at 5 days', item= O=C(Cn1nc(C(F)(F)F)c2c1CCCC2)NC(Cc1cc(F)cc(F)c1)c1nccnc1-c1ccc(Cl)cc1 (stereo not shown) )
Outgoing: 9980

Incoming: # get_value(readout='CC50 at 5 days', item= O=C(Cc1c[nH]c2ccc(F)cc12)N[C@@H](Cc1cc(F)cc(F)c1)c1ncccc1-c1ccc2nonc2c1 )
Outgoing: 8650

====

System: MT-4 cells
Experiment: in vitro
Conditions: uninfected MT-4 cells, same protocol as Test A, 5 days, CellTiter-Glo
This section presents compounds with their documented CC50 values.

Incoming: # get_value(readout='CC50', item= NC(=O)c1cc(-c2cccnc2[C@H](Cc2cc(F)cc(F)c2)NC(=O)Cn2nc(C(F)(F)F)c3c2[C@H]2C[C@H]2C3)ccc1F (single isomer, unassigned) )
Outgoing: 16.8 µM

Incoming: # get_value(readout='CC50', item= CC12CCC(c3c(C(F)(F)F)nn(CC(=O)N[C@@H](Cc4cc(F)cc(F)c4)c4ncccc4-c4ccc(F)c(C(N)=O)c4)c31)C2(C)C (some centres unmarked) [Example 93B] )
Outgoing: 8.14 µM

Incoming: # get_value(readout='CC50', item= CCC(C(=O)N[C@@H](Cc1cc(F)cc(F)c1)c1ncccc1-c1ccc(F)c(C(N)=O)c1)n1ccc(C(F)(F)F)n1 (single isomer, unassigned) )
Outgoing: 30.1 µM

Incoming: # get_value(readout='CC50', item= O=C(Cn1nc(C(F)F)c2c1C1CC1CC2)NC(Cc1cc(F)cc(F)c1)c1ncncc1-c1cnc2[nH]ccc2c1 (single isomer, unassigned) [Example 347] )
Outgoing: 19.4 µM

Incoming: # get_value(readout='CC50', item= CCC(C(=O)N[C@@H](Cc1cc(F)cc(F)c1)c1ncccc1-c1ccc(F)c(C(N)=O)c1)n1nc(C(F)F)cc1C(F)F (single isomer, unassigned) )
Outgoing: 27.4 µM

Incoming: # get_value(readout='CC50', item= CCC(C(=O)N[C@@H](Cc1cc(F)cc(F)c1)c1ncccc1-c1ccc(F)c(C(N)=O)c1)n1cc(C(C)=O)c2ccccc21 (some centres unmarked) [Example 554] )
Outgoing: 48.9 µM

Incoming: # get_value(readout='CC50', item= Cc1cc(-c2cccnc2[C@H](Cc2cc(F)cc(F)c2)NC(=O)Cc2c[nH]c3ccc(F)cc23)cnc1F )
Outgoing: 12.8 µM

Incoming: # get_value(readout='CC50', item= NC(=O)c1cc(-c2cccnc2[C@H](Cc2cc(F)cc(F)c2)NC(=O)Cn2nc(C(F)F)c3c2C2CC2C3)ccc1F (some centres unmarked) [Example 163C] )
Outgoing: 27.4 µM

Incoming: # get_value(readout='CC50', item= CCCCC(C(=O)N[C@@H](Cc1cc(F)cc(F)c1)c1ncccc1-c1ccc(F)c(C(N)=O)c1)n1ccc(C(F)(F)F)n1 (single isomer, unassigned) )
Outgoing: 12.4 µM

Incoming: # get_value(readout='CC50', item= NC(=O)c1cc(-c2cccnc2[C@H](Cc2cc(F)cc(F)c2)NC(=O)Cn2nc(C(F)(F)F)c3c2C(O)C2CC32)ccc1F (some centres unmarked) [Example 156] )
Outgoing: 39.2 µM

Incoming: # get_value(readout='CC50', item= CCC(C(=O)N[C@@H](Cc1cc(F)cc(F)c1)c1ncccc1-c1ccc(F)c(C(N)=O)c1)n1ccnc1C(C)C (single isomer, unassigned) )
Outgoing: > 53.2 µM

Incoming: # get_value(readout='CC50', item= CCC(C(=O)N[C@@H](Cc1cc(F)cc(F)c1)c1ncccc1-c1ccc(F)c(C(N)=O)c1)n1nc(C(F)(F)F)c2c1CCCC2 (single isomer, unassigned) [Example 532] )
Outgoing: 12.2 µM

Incoming: # get_value(readout='CC50', item= NC(=O)c1cc(-c2cccnc2[C@H](Cc2cc(F)cc(F)c2)NC(=O)Cn2nc(C(F)(F)F)c3c2C(O)C2CC32)ccc1F (some centres unmarked) [Example 155] )
Outgoing: 37 µM

Incoming: # get_value(readout='CC50', item= CC(C)CC(C(=O)N[C@@H](Cc1cc(F)cc(F)c1)c1ncccc1-c1ccc(F)c(C(N)=O)c1)n1ccc(C(F)(F)F)n1 (single isomer, unassigned) )
Outgoing: 14.4 µM

Incoming: # get_value(readout='CC50', item= CC(C)CC(=O)NS(=O)(=O)c1ccc(-c2cccnc2C(Cc2cc(F)cc(F)c2)NC(=O)Cn2nc(C(F)F)c3c2C(F)(F)C2C[C@H]32)cc1 (some centres unmarked) )
Outgoing: 32.8 µM
